# Tested on: TK-10 renal
# Assay Summary: NCI tumour cell line growth inhibition, 48 h
Measure Name: TGI

Compound: O=c1ccs[nH]1
TGI: 32.8 µM
--
Compound: CC(=O)c1cccc(C)c1C(=O)O
TGI: > 100 µM
--
Compound: CCCCCCc1ccc(C(=O)NO)cc1
TGI: > 100 µM
--
Compound: Cc1nc(C(N)=S)sc1C(=O)CC(=O)C(=O)Nc1ccccc1[N+](=O)[O-]
TGI: > 100 µM
--
Compound: CC1(C)CCc2c(c(N=Nc3ccc(S(N)(=O)=O)cc3)c3ccccc3c2O)O1
TGI: 38 µM

Which TGI value belongs to Cc1cc(C)nc(NS(=O)(=O)c2ccc(NNc3c4ccccc4nc4c(C(=O)Nc5ccc(S(N)(=O)=O)cc5)cccc34)cc2)n1 ?
> 100 µM

Which TGI value belongs to COc1ccc(P2(=S)Oc3ccccc3-c3ccccc3O2)cc1 ?
> 100 µM

Which TGI value belongs to CN1C/C(=C\c2cccs2)C2=NN(C)C(c3cccs3)C2C1 (stereo not given) ?
> 100 µM

###

# System: OVCAR-3 ovarian
# Assay Summary: NCI tumour cell line growth inhibition, 48 h
Measure Name: TGI

Example results:
Smiles Code: NC(N)=NS(=O)(=O)c1ccc(NNc2c3ccccc3nc3c(C(=O)Nc4ccc(S(=O)(=O)N=C(N)N)cc4)cccc23)cc1
TGI: > 100 µM
--
Smiles Code: O=C1O[C@H](c2ccccc2)[C@@H]2CC3(CCN12)OCCO3
TGI: > 100 µM
--
Smiles Code: CNC(=S)NC(=O)c1c(Cl)n(C(=O)OC(C)(C)C)c2ccccc12
TGI: > 100 µM
--
Smiles Code: N#Cc1ccc2c(c1)C(=O)c1c-2n(CCCCl)c(=O)c2cc([N+](=O)[O-])ccc12
TGI: > 100 µM
--
Smiles Code: COc1cc2ncn(-c3cc(O[C@@H](C)c4ccccc4Cl)c(C(N)=O)s3)c2cc1OC
TGI: > 17.4 µM

Okay, next one:
Which TGI value belongs to COc1ccc(/C=C2\CN(C)C/C(=C\c3ccc(OC)cc3)C2=O)cc1 ?
> 100 µM

###

# Tested on: RXF 393 renal
# Assay Summary: NCI tumour cell line growth inhibition, 48 h
Listing: GI50 of selected compounds

Compound: CC(=O)N1C/C(=C/c2ccc(Cl)cc2)C(=O)/C(=C/c2ccc(Cl)cc2)C1
GI50: 546 nM

Compound: COc1ccc(-c2cc(-c3ccc(Cl)cc3)nc(SCCCC(=O)NO)n2)cc1
GI50: 359 nM

Which GI50 value belongs to CC1=C(C(=O)Nc2ccc(Cl)c(Cl)c2)C(c2cccc(Cl)c2)NC(=O)N1 (stereo not drawn) ?
13800 nM

###

# System: MOLT-4 leukemia
# Assay Summary: NCI tumour cell line growth inhibition, 48 h
Measure Name: TGI

Example results:
Compound: COc1ccc(-c2oc(=O)ccc2-c2cc(OC)c(OC)c(OC)c2)cc1O
Observed Value: > 100 µM
--
Compound: CO[C@@H]1C[C@H]2[C@@H]3CC[C@H]([C@@H](C)CO)[C@@]3(C)CC[C@@H]2[C@@]2(C)CC[C@H]3C[C@]312
Observed Value: > 100 µM

Reported TGI for MOLT-4 leukemia, given CC1=CC[C@H](C(C)C)C(C(O)[C@@H](C)O[Si](c2ccccc2)(c2ccccc2)C(C)(C)C)C1=O (stereo partly drawn) ?
> 100 µM

###

# Tested on: NCI-H226 lung
# Assay Summary: NCI tumour cell line growth inhibition, 48 h
Measure Name: TGI

Example results:
Smiles Code: CC(=O)[C@@H]1C/C(=C\OCc2ccccc2)O[C@H]1C
TGI: > 100 µM
--
Smiles Code: Cc1cc(=O)oc2c(C)c(O)ccc12
TGI: > 100 µM
--
Smiles Code: O=c1c2cc(-c3ccccc3)sc2nc2n1N=C(c1ccc(Cl)cc1)CS2
TGI: > 100 µM

Which TGI value belongs to C=C(CN1CCN(c2cccc(C(F)(F)F)n2)CC1)c1ccc(C(=O)Nc2ccccc2N)cc1 ?
> 100 µM

Which TGI value belongs to CC[C@H](Nc1c(O)c2c(c(O)c1Cl)C(=O)C=CC2=O)C(=O)OC ?
> 10 µM

Which TGI value belongs to CCCN(CCC)c1ccc(/C=C/c2ccc3cc(OCC)ccc3n2)cc1 ?
> 100 µM

###

# System: MCF7 breast
# Assay Summary: NCI tumour cell line growth inhibition, 48 h
Measure Name: GI50

Smiles Code: COC(=O)c1cc2c3ccccc3n3c(=O)c4cc5ccccc5nc4c(n1)c23
GI50: > 100 µM
//
Smiles Code: COc1cc(-c2ccc(-c3ccc(C(=N)N)nc3)s2)cc(OC)c1OC
GI50: 1.3 µM

Okay, next one:
Reported GI50 for MCF7 breast, given O=C(O)c1ccc(Oc2nccc(-c3c(-c4ccc(F)cc4)ncn3C3CCNCC3)n2)cc1 ?
> 25 µM

###

Listing: TGI of selected compounds
# Test system: 786-0 renal
# Assay Summary: NCI tumour cell line growth inhibition, 48 h

Example results:
Compound: C=C1C(=O)O[C@H]2[C@H]1CC/C(COC(=O)c1cc3ccccc3o1)=C\CC[C@@]1(C)O[C@@H]21
Observed Value: 3.45 µM
--
Compound: CC[C@H](Nc1c(O)c2c(c(O)c1Cl)C(=O)C=CC2=O)C(=O)OC
Observed Value: > 10 µM
--
Compound: CCOc1ccc(N=Cc2ccc3cc(C)ccc3n2)cc1
Observed Value: > 100 µM
--
Compound: O=c1ccs[nH]1
Observed Value: 21.4 µM
--
Compound: CN1C/C(=C\c2cccs2)C2=NN(C)C(c3cccs3)C2C1 (stereo not given)
Observed Value: > 100 µM

Which TGI value belongs to O=C1O/C(=C\c2ccccc2)N(c2ccccc2)C1=O ?
> 100 µM

Which TGI value belongs to CC(C)(C)CC(C)(C)c1cc2c(O)c(c1)Cc1cc(C(C)(C)CC(C)(C)C)cc(c1O)Cc1cc(C(C)(C)CC(C)(C)C)cc(c1O)Cc1cc(C(C)(C)CC(C)(C)C)cc(c1O)Cc1cc(C(C)(C)CC(C)(C)C)cc(c1O)C2 ?
> 100 µM

Which TGI value belongs to C[C@]12CC[C@@H]3c4cc(-c5ccc(F)cc5)c(O)cc4CC[C@H]3[C@@H]1CC[C@@H]2O ?
27.7 µM

Which TGI value belongs to O=C(Nc1ccccc1)c1cc2ccccc2c(N=Nc2ccc([N+](=O)[O-])cc2)c1O ?
> 100 µM

Which TGI value belongs to CC(NO)/C(=N/O)c1ccco1 (stereo not given) ?
> 10 µM

Which TGI value belongs to CC(C)(C)OCC1NC(=O)[C@@H]2Cc3c([nH]c4ccccc34)C(c3ccccc3)N2C1=O (stereo not given in full) ?
> 50 µM

Which TGI value belongs to COc1ccc2c3c([nH]c2c1[N+](=O)[O-])C(C)N(Cc1ccc([N+](=O)[O-])cc1)CC3 (stereo not given) ?
> 100 µM

Which TGI value belongs to C#CCOCn1cnc2c(Sc3c([N+](=O)[O-])ncn3C)ncnc21 ?
> 100 µM

###

# Test system: SW-620 colon
# Assay Summary: NCI tumour cell line growth inhibition, 48 h
Measure Name: TGI

Example results:
Molecule: C=C1C(C2(C)C(OC(C)=O)CC(=O)OC(C)(COC(C)=O)C2CC(=O)OC)C(OC=O)C(OC(=O)C(O)C(C)CC)C2(C)C(c3ccoc3)CC(=O)C12O (centres undefined)
TGI: > 100 µM
--
Molecule: C[C@]12CC[C@@H]3c4cc(-c5ccc(F)cc5)c(O)cc4CC[C@H]3[C@@H]1CC[C@@H]2O
TGI: 21.8 µM
--
Molecule: O=C(Nc1ccc(Cl)cc1Cl)C1C(=O)C(=O)N(c2ccc(Cl)cc2Cl)C1=O (centres undefined)
TGI: > 100 µM

Which TGI value belongs to Cn1nc(-c2ccccc2)c(C(=O)/C=C/c2ccc(Cl)cc2)c(N2CCCCC2)c1=O ?
16.6 µM

Which TGI value belongs to C[C@@H](O)[C@H](NC(=O)N[C@@H](CC(N)=O)c1nc([C@@H](N)CO)no1)C(=O)O ?
> 100 µM

Which TGI value belongs to Cc1c(S(=O)(=O)O)ccc(N=Nc2c(O)c(C(=O)O)cc3ccccc23)c1Cl ?
> 100 µM

###

# Test system: MOLT-4 leukemia
# Assay Summary: NCI tumour cell line growth inhibition, 48 h
Listing: TGI of selected compounds

Example results:
Compound: COc1cc2c(cc1OC)-c1ccc3cc4c(cc3c1N(CCCn1ccnc1)C2)OCO4
TGI: > 100 µM
--
Compound: CC(=O)CC(N)=O
TGI: > 100 µM
--
Compound: O=P1(Oc2ccc(Cl)cc2Cl)Oc2ccc3ccccc3c2-c2c(ccc3ccccc23)O1
TGI: 55.6 µM
--
Compound: CC(=O)[C@@H]1C/C(=C\OCc2ccccc2)O[C@H]1C
TGI: > 100 µM

Which TGI value belongs to O=C1NC(=O)C(c2ccccc2Cl)=C1Nc1cc(Cl)c(O)c(Cl)c1 ?
> 25 µM

Which TGI value belongs to O=S(CC1(O)CCCCC1)c1ccccc1 (stereo not given) ?
> 100 µM

Which TGI value belongs to NC[C@H]1Nc2ccccc2[C@@H](O)C1O (stereo not given in full) ?
> 100 µM

Which TGI value belongs to CCN(Cc1ccccc1)c1ccc(CO)c(Cl)c1 ?
> 87.2 µM

Which TGI value belongs to CC(C)(C)OCC1NC(=O)[C@@H]2Cc3c([nH]c4ccccc34)C(c3ccccc3)N2C1=O (stereo not given in full) ?
> 32.7 µM

Which TGI value belongs to CCCC[C@H]1[C@@H](OCOc2ccccc2)COC(=O)N1[C@H](C)c1ccccc1 ?
> 60.4 µM
